Listed below: pKd values for each entry.
# target_system: FLT3 D835H (Homo sapiens, UniProt P36888, D835H)
# Construct: purchased DiscoverX (KINOMEscan); host or cells: E. coli BL21-derived host (T7 phage) or HEK-293
# Sequence (P36888 27-993 D835H): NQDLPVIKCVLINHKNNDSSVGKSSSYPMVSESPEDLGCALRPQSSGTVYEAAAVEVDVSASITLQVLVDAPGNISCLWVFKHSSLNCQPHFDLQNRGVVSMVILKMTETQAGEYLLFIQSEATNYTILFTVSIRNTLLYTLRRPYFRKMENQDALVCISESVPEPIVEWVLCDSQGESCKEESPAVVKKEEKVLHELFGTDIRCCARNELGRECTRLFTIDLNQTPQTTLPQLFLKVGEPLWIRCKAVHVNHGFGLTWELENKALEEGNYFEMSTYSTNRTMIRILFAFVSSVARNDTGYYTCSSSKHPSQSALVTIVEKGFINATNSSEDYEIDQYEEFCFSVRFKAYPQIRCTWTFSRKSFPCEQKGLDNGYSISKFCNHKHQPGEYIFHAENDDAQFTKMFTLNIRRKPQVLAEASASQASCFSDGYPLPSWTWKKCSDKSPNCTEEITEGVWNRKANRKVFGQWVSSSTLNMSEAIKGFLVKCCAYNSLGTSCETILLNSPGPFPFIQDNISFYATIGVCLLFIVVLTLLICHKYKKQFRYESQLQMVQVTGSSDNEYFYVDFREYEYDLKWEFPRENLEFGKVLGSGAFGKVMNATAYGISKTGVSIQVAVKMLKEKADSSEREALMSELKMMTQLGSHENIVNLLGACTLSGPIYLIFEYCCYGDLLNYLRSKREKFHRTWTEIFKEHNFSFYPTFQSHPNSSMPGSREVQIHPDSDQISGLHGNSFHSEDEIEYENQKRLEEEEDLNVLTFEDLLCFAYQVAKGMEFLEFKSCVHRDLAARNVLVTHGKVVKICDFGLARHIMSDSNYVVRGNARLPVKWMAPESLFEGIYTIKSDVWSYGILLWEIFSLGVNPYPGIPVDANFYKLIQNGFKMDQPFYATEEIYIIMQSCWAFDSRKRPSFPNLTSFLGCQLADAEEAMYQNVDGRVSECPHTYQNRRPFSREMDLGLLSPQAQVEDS
# assay_details: DiscoverX KINOMEscan competition binding assay, FLT3 D835H
# test_settings: 11-point 3-fold dilution
Schema: pKd number; meaning minus log10 of the concentration expressed in molar units.

1. FC(F)COc1cc2ncc(-c3ccnc(N[C@H]4CNCC[C@@H]4F)n3)n2nc1C1CC1 : 9.15
2. CC(C)(O)c1cn2c(-c3nc(N[C@H]4CNCC[C@@H]4F)ncc3F)cnc2cn1 [Compound 100a] : 8.20
3. CC(C)(O)c1ccc2ncc(-c3nc(N[C@H]4CNCC[C@@H]4F)ncc3F)n2c1 [Compound 46a] : 9.17
4. COc1cc2ncc(-c3nc(N[C@H]4CNCC[C@@H]4F)ncc3F)n2nc1C(C)(C)O [Compound 45a] : 9.38

// below: pKd requested for another compound
Name the recorded pKd for COc1cc2ncc(-c3nc(N[C@H]4CNCC[C@@H]4F)ncc3F)n2nc1C1CC1 .
9.66

###

# Tested on: MOLM14 D835Y cells
# assay_details: MOLM14 D835Y cell viability assay (Cell Titer Glo)
# Type: cell-based
# test_settings: Homo sapiens, MOLM-14, 48 h, cell viability, Cell Titer Glo, 48 hours; read-out: MOLM14 D835Y IC50
pIC50: −log10 of the molar value.
Binary label based on pIC50 with cut-off 8: below gives Met, not below gives Not met.

Worked cases, answers included:
1. COc1cc2ncc(-c3ccnc(N[C@H]4CNCC[C@@H]4F)n3)n2nc1C1CC2(CCC2)C1 [Compound 74a] : Met
2. COc1cc2ncc(-c3nc(N[C@H]4CNCC[C@@H]4F)ncc3F)n2nc1C1COC1 [Compound 92a] : Not met
3. COc1cc2ncc(-c3nc(N[C@H]4CNCC[C@@H]4F)ncc3F)n2nc1N1CCCC1=O [Compound 108a] : Met
4. COc1cc2ncc(-c3nc(N[C@@H]4CCCNC4)ncc3F)n2nc1N1CCS(=O)(=O)CC1 [Compound 124a] : Met
5. COc1cc2ncc(-c3nc(N[C@@H]4CCCNC4)ncc3F)n2nc1C12CC(C1)C2 [Compound 68a] : Not met

Regarding FC(F)COc1cc2ncc(-c3cncc(N[C@H]4CNC[C@@H]4F)n3)n2nc1C1CC1 [Compound 8a] , kindly confirm whether its pIC50 is beneath 8.
Met

Would you mind doing COc1cc2ncc(-c3nc(N[C@H]4CNCC[C@@H]4F)ncc3F)n2nc1[C@H]1C[C@@H](O)C1 [Compound 126a] as well?
Not met

Would you kindly repeat that for CC(O)(c1ccc2ncc(-c3nc(N[C@H]4CNC[C@@H]4F)ncc3F)n2c1)C(F)(F)F (single isomer, unassigned) [Compound 36a] ?
Met

Entry to check: COc1cc2ncc(-c3cncc(N[C@H]4CNCC[C@@H]4F)n3)n2nc1C1CC(F)(F)C1 [Compound 73a]
Met

Try this compound too: C[C@@](O)(c1ccc2ncc(-c3ccnc(N[C@H]4CNCC[C@@H]4F)n3)n2c1)C(F)(F)F (single isomer, unassigned) [Compound 27a]
Met

Could you do the same for COc1cc2ncc(-c3ccnc(N[C@@H]4CCCNC4)n3)n2nc1C1CC(C)(C)C1 [Compound 81a] , please?
Met

Repeat with COc1cc2ncc(-c3nc(N[C@H]4CNCC[C@@H]4F)ncc3F)n2nc1N1CCOCC1 [Compound 121a]
Not met

What would you report for COc1cc2ncc(-c3nc(N[C@@H]4CCCNC4)ncc3F)n2nc1C1CCCC1 [Compound 62a] ?
Not met

Try this compound too: COc1cc2ncc(-c3nc(N[C@H]4CNCC[C@@H]4F)ncc3F)n2nc1N1CCCS1(=O)=O [Compound 112a]
Not met
